Assay: Metabolic stability of prodrugs in human liver microsomes
Conditions: pH 7.4
Where a name gives a salt, the structure may show the parent alone.
reported.metric: half-life

>>> test_result("CCCCCCCC(=O)N[C@H](CN1CCCC1)[C@H](OC(=O)CCOCCOCCN)c1ccc2c(c1)OCCO2 [II-b]")
"> 90 min"
>>> test_result("CCCCCCCC(=O)N[C@H](CN1CCCC1)[C@H](OC(=O)CCCCC)c1ccc2c(c1)OCCO2 [I-aa]")
"< 30 min"
>>> test_result("CCCCCCCC(=O)N[C@H](CN1CCCC1)[C@H](OC(=O)N(C)C)c1ccc2c(c1)OCCO2 [I-r]")
"< 30 min"
>>> test_result("CCCCCCCC(=O)N[C@H](CN1CCCC1)[C@H](OC(=O)CCCCCCC)c1ccc2c(c1)OCCO2 [I-i Hemitartrate salt]")
"< 30 min"
>>> test_result("CCCCCCCCCC(=O)O[C@H](c1ccc2c(c1)OCCO2)[C@@H](CN1CCCC1)NC(=O)CCCCCCC [I-j Hemitartrate salt]")
"63 min"
>>> test_result("CCCCCCCC(=O)N[C@H](CN1CCCC1)[C@H](OS(=O)(=O)O)c1ccc2c(c1)OCCO2 [IV-d]")
"> 90 min"
>>> test_result("CCCCCCCC(=O)N[C@H](CN1CCCC1)[C@H](OC(=O)CN(C)C)c1ccc2c(c1)OCCO2 [I-w]")
"< 30 min"
>>> test_result("CCCCCCCC(=O)N[C@H](CN1CCCC1)[C@H](OC(=O)C(C)C)c1ccc2c(c1)OCCO2 [I-g Hemitartrate salt]")
"< 30 min"
>>> test_result("CCCCCCCC(=O)N[C@H](CN1CCCC1)[C@H](OC(=O)CCC(=O)O)c1ccc2c(c1)OCCO2 [I-o]")
"> 90 min"
>>> test_result("CCCCCCCC(=O)N[C@H](CN1CCCC1)[C@H](OC(=O)NC)c1ccc2c(c1)OCCO2 [I-u Hemitartrate salt]")
"< 30 min"
>>> test_result("CCCCCCCC(=O)N[C@H](CN1CCCC1)[C@H](OC(=O)C(C)(C)C)c1ccc2c(c1)OCCO2 [I-h Hemitartrate salt]")
"< 30 min"
>>> test_result("CCCCCCCC(=O)N[C@H](CN1CCCC1)[C@H](OC(=O)OCC)c1ccc2c(c1)OCCO2 [I-p Hemitartrate salt]")
"< 30 min"
>>> test_result("CCCCCCCC(=O)N[C@H](CN1CCCC1)[C@H](OC(=O)CCN1CCOCC1)c1ccc2c(c1)OCCO2 [I-x]")
"< 30 min"
>>> test_result("CCCCCCCC(=O)N[C@H](CN1CCCC1)[C@H](OC(=O)N1CCC(N2CCCCC2)CC1)c1ccc2c(c1)OCCO2 [I-q]")
"< 30 min"
>>> test_result("CCCCCCCC(=O)N[C@H](CN1CCCC1)[C@H](OC(=O)COCCOCCOC)c1ccc2c(c1)OCCO2 [II-a]")
"< 30 min"

---

Test: Metabolic stability of prodrugs in human liver microsomes
Settings: pH 7.4
Where a name gives a salt, the structure may show the parent alone.
reported.metric: half-life

>>> test_result("CCCCCCCC(=O)N[C@H](CN1CCCC1)[C@H](OC(=O)CCCC(=O)O)c1ccc2c(c1)OCCO2")
"65 min"
>>> test_result("CCCCCCCC(=O)N[C@H](CN1CCCC1)[C@H](OC(=O)c1cccnc1)c1ccc2c(c1)OCCO2 [I-c Hemitartrate salt]")
"< 30 min"
>>> test_result("CCCCCCCC(=O)N[C@H](CN1CCCC1)[C@H](OC(=O)[C@H](N)C(C)C)c1ccc2c(c1)OCCO2 [I-l Hydrochloride salt]")
"< 30 min"
>>> test_result("CCCCCCCC(=O)N[C@H](CN1CCCC1)[C@H](OC(=O)CC(=O)O)c1ccc2c(c1)OCCO2")
"> 90 min"
>>> test_result("CCCCCCCC(=O)N[C@H](CN1CCCC1)[C@H](OC(=O)[C@@H](N)C(C)C)c1ccc2c(c1)OCCO2 [I-m Hemitartrate salt]")
"< 30 min"
>>> test_result("CCCCCCCC(=O)N[C@H](CN1CCCC1)[C@H](OC(=O)c1ccccc1O)c1ccc2c(c1)OCCO2 [I-d Hemitartrate salt]")
"< 30 min"
>>> test_result("CCCCCCCC(=O)N[C@H](CN1CCCC1)[C@H](OC(=O)N(CC)CC)c1ccc2c(c1)OCCO2 [I-n Hemitartrate salt]")
"< 30 min"
